Entry source: PubChem BioAssay (NCI)

# Test system: UACC-62 melanoma
# Method description: NCI-60 one-dose screen, 48 h (100 = growth as untreated, 0 = no growth, -100 = all killed)
# Test conditions: 10 µM unless noted
About 83,000 compounds went through this panel and 20% of them were active in at least one assay; those are over-represented in the sample as a whole.
Value type: growth (%)
All answers are understood in %, so give the number only.

{"columns": ["Compound", "Output unit", "growth"],
 "data": [
  ["COc1cc(NC(=O)CCSc2nc3ccccc3c(=O)n2Cc2ccccc2)cc(OC)c1OC", "%", 64.8]
]}

Challenge: GET growth | system: UACC-62 melanoma | item: CCn1c(SCC(=O)Nc2cc(C(F)(F)F)ccc2Cl)nc2ccccc2c1=O
Response given: -79.1

Challenge: GET growth | system: UACC-62 melanoma | item: O=C(NC1CCN(Cc2ccccc2)CC1)c1cc2nc(-c3ccc(Cl)s3)cc(C(F)(F)F)n2n1
Response given: 97.3

Challenge: GET growth | system: UACC-62 melanoma | item: COc1ccc(N)c(-c2cc3c(c4c2[nH]c2ccc(OC)cc24)CCCC3)c1
Response given: 69.5

Challenge: GET growth | system: UACC-62 melanoma | item: CCn1c(-c2nonc2Nc2ccc(OC)cc2)nc2ccccc21
Response given: 96.2

Challenge: GET growth | system: UACC-62 melanoma | item: CCOc1cc2c(cc1OCC)C(c1cc(C)c(O)c(C)c1)NCC2 (stereo unspecified)
Response given: 91.3

Challenge: GET growth | system: UACC-62 melanoma | item: COC(=O)c1ccc(NC(=O)CSc2nc3ccccc3c(=O)n2-c2ccccc2)cc1
Response given: 96.3

Challenge: GET growth | system: UACC-62 melanoma | item: O=C1NC(=S)NC(=O)C1=Cc1cn(Cc2cn(Cc3cccc4ccccc34)nn2)c2ccccc12
Response given: 88.3

Challenge: GET growth | system: UACC-62 melanoma | item: O=C(Nc1ccc(Cl)cc1)c1cc2ccccc2cc1OP(=O)(O)O
Response given: 35.4

Challenge: GET growth | system: UACC-62 melanoma | item: CC(C)Cn1c2c(c(=S)[nH]c1=O)CCC2
Response given: 96.1

Challenge: GET growth | system: UACC-62 melanoma | item: C1=CC2(C=C1)OC21CCC2(C=CC3(C2)OC3C2CCCCC2)CC1 (stereo unspecified)
Response given: 99.7

---

Each record here notes measured growth.
# System: CCRF-CEM leukemia
# Method description: NCI-60 one-dose screen, 48 h (100 = growth as untreated, 0 = no growth, -100 = all killed)
# Test conditions: 10 µM unless noted
About 83,000 compounds went through this panel and 20% of them were active in at least one assay; those are over-represented in the sample as a whole.
All answers are understood in %, so give the number only.

{"columns": ["Mol", "Value type", "Test result"],
 "data": [
  ["CC(C)Cn1c2c(c(=S)[nH]c1=O)CCC2", "growth", 99.3],
  ["O=Nc1c(O)ccc2ccccc12.O=Nc1c(O)ccc2ccccc12.O=Nc1c([O-])ccc2ccccc12.[Fe+3]", "growth", 107]
]}

Challenge: Provide one value: measured growth of CC[C@H](C)[C@@H](C(=O)OC)n1cc(CNC(=O)[C@@H](Cc2ccccc2)NC(=O)OCc2ccccc2)nn1
Response given: 85.1

---

# System: UACC-257 melanoma
# Method description: NCI-60 one-dose screen, 48 h (100 = growth as untreated, 0 = no growth, -100 = all killed)
# Test conditions: 10 µM unless noted
This is part of a sample that, as a whole, favours compounds with a hit. Of some 83,000 tested, about 20% had one in any assay.
Value type: growth (%)
All answers are understood in %, so give the number only.

{"columns": ["Compound", "Tested target", "Test result"],
 "data": [
  ["COc1nc2c(c(=O)n1C)N=C1c3ccccc3C(=O)C1C(c1ccccc1)N2 (centres undefined)", "UACC-257 melanoma", 96.7]
]}

Challenge: Provide one value: measured growth of Cc1nc(Nc2ccccn2)sc1C(=O)/C=C/c1ccc(Cl)cc1
Response given: 41.8

Challenge: Provide one value: measured growth of CCOC(=O)c1cnc2c(C)cccc2c1Nc1ccc(C(C)=O)cc1
Response given: -58.4

Challenge: Provide one value: measured growth of Cn1c(=O)n(C)c2cc(CNCCNc3ccnc4cc(Cl)ccc34)ccc21
Response given: -61.8

---

# Tested on: OVCAR-5 ovarian
# Method description: NCI-60 one-dose screen, 48 h (100 = growth as untreated, 0 = no growth, -100 = all killed)
# Test conditions: 10 µM unless noted
# Procedure: Growth inhibition of the OVCAR-5 human tumor cell line is measured as a screen for anti-cancer activity. Cells are grown in 96 well plates and exposed to the test compound for 48 hours. Compounds are tested at a single concentration, which is 10^-5 M for most compounds. The reported endpoint is percent growth (GI% or GIPRCNT), where numbers from 0 - 100% represent growth inhibition, and numbers from -100% - 0 represent cell death. For example, a value of 40 represents 60% growth inhibition. […]
About 83,000 compounds went through this panel and 20% of them were active in at least one assay; those are over-represented in the sample as a whole.
Value type: growth (%)
All answers are understood in %, so give the number only.

Example entries and their recorded answers appear below.
{"columns": ["Compound", "Output unit", "growth"],
 "data": [
  ["COc1cc(/C=C/C(=O)N2c3ccccc3CC2C)c(OC)c2c1OCO2 (configuration not stated)", "%", 87.1],
  ["O=c1oc2ccc(Br)cc2c(=O)n1-c1ccc(I)cc1F", "%", 22],
  ["COc1ccc(OC)c(N(CCN2C(=O)c3ccccc3C2=O)C(=O)CCl)c1", "%", 65.9],
  ["O=C(Nc1ccccc1O)c1ccc(Oc2cccc(C(=O)Nc3ccccc3O)c2)cc1", "%", 50.7]
]}

Challenge: Provide one value: measured growth of Brc1ccc(Oc2ccc(Nc3ncnc4onc(-c5ccccc5)c34)cc2)cc1
Response given: 105

Challenge: Provide one value: measured growth of Cc1cccc2c(=O)c3c(sc12)c(NCCN)nc1ccccc13
Response given: -46.9

---

# Tested on: NCI-H322M lung
# Method description: NCI-60 one-dose screen, 48 h
# Test conditions: 10 µM unless noted
This is part of a sample that, as a whole, favours compounds with a hit. Of some 83,000 tested, about 20% had one in any assay. Activity calls are given as the source filed them. The calls were made as follows: active = growth percent below 10; inactive = the rest.
Choose one outcome from this list and give only that: active, inactive

# count of solved cases: 8
{"columns": ["Compound", "Tested target", "Group"],
 "data": [
  ["CNCCNc1nc2ccccc2c2c(=O)c3cccc(C)c3sc12", "NCI-H322M lung", "inactive"],
  ["CCCCCCc1cc2cc(-c3nc4ccccc4[nH]3)c(=Nc3ccccc3C)oc2cc1O", "NCI-H322M lung", "inactive"],
  ["CC(C)C[C@H](C(=O)N[C@@H](C)C(N)=O)N1CC=CCN(O)S1(=O)=O", "NCI-H322M lung", "inactive"],
  ["CN(O)c1nc(N(C)O)nc(N2CCOCC2)n1", "NCI-H322M lung", "inactive"],
  ["COc1ccc2sc(N(Cc3cccnc3)C(=O)c3ccc(C#N)cc3)nc2c1", "NCI-H322M lung", "inactive"],
  ["COc1ccc(Cn2cc(Cn3c(=O)c(-c4nc5ccccc5[nH]4)cc4ccccc43)nn2)c(OC)c1OC", "NCI-H322M lung", "inactive"],
  ["COc1cccc(/C=C/C(=O)c2c(C)nc3ccccc3c2/C=C/c2ccccc2)c1OC", "NCI-H322M lung", "inactive"],
  ["COc1ccc(CN2CCCC(C(=O)c3ccc(C(F)(F)F)cc3)C2)c(O)c1 (centres undefined)", "NCI-H322M lung", "inactive"]
]}

Challenge: // outcome(item) with item = CCCC(=O)CC(C)=O.CCCC(=O)CC(C)=O.[Cu]
Response given: inactive

Challenge: // outcome(item) with item = N#Cc1c(N)nc2c(c1N)C(c1ccc(F)cc1)c1ccc(N)cc1O2 (centres undefined)
Response given: inactive

Challenge: // outcome(item) with item = O=C(N/N=C/c1ccccc1O)C(=O)Nc1ccc(F)cc1
Response given: inactive

Challenge: // outcome(item) with item = CCOC(=O)c1sc(-c2ccc(OS(=O)(=O)c3cccs3)c(C=O)c2)nc1C
Response given: inactive

Challenge: // outcome(item) with item = O=C(NCCCN1CCC(N2CCCCC2)CC1)C1=Cc2cc(Br)ccc2OC1
Response given: inactive

Challenge: // outcome(item) with item = CNC(=O)c1cc(Oc2ccc(CC(=O)Nc3cc(C(C)(C)C)cn3C)cc2)ccn1
Response given: inactive

Challenge: // outcome(item) with item = Brc1ccc(Oc2ccc(Nc3ncnc4onc(-c5ccccc5)c34)cc2)cc1
Response given: inactive

---

# System: HCT-116 colon
# Method description: NCI-60 one-dose screen, 48 h (100 = growth as untreated, 0 = no growth, -100 = all killed)
# Test conditions: 10 µM unless noted
Compounds without any hit were thinned out: in the full panel of roughly 83,000, 20% have a hit.
growth below 20% gives Not met; growth at or above it gives Met.

{"columns": ["Molecule", "Group"],
 "data": [
  ["CC1=CCC(OC(=O)C(C)(C)CCC(O)(C(=O)OC2(C(C)C)CCC3(C)OC3C2)C(C)C)(C(C)C)CC1 (stereo unspecified)", "Not met"],
  ["CC1=C(C(=O)OCC2CCN(C(=O)OC(C)(C)C)CC2)[C@@H](c2cccc(C#N)c2)C2=C(CC(C)(C)CC2=O)N1", "Not met"],
  ["COc1ccc(C2NCCc3c2[nH]c2ccccc32)cc1CN1CCN(c2ccc(F)cc2)CC1 (stereo unspecified)", "Met"],
  ["S=C1CCCC(=S)N1", "Met"],
  ["CCCCN1CCN(c2ccc3nc(-c4ccc5nc(-c6ccc(OCC)cc6)[nH]c5c4)[nH]c3c2)CC1", "Met"]
]}

Lab note: next molecule to report on.
Challenge: State whether the measured growth reaches 20%, counting equality as reaching it, for O=c1oc2ccc(I)cc2c(=O)n1-c1ccc(F)cc1F
Response given: Not met
